Consider the following sequences; for each one, report its thermal V50.
# System: HLA-B7 monomers
# EXPERIMENT NOTES: Thermal shift assay (DSF) of p-MHC complexes
# Format: binding, human
# TEST SETTINGS: Boltzmann fitting, rounded
Phrase the answer as number then unit, nothing more needed.

NPRWDGERL [MPO5] = 46 °C
TPAQLNVL [MPO2] = 46 °C
LTPAQLNVL [MPO2+L1] = 44 °C

# query: thermal V50 of entry TPRVTGGGAM [pp65, pp65(417-426) control peptide […], reference compound]
50 °C

###

# System: HLA-B7 monomers
# EXPERIMENT NOTES: Thermal shift assay (DSF) of p-MHC complexes
# Type: binding, human
# TEST SETTINGS: 2 µM monomer, 150 mM NaCl, 10 mM HEPES pH 7.4, 3 mM EDTA, SYPRO orange, 21°C to 95°C, mean of quadruplicates (n=2)
ASSAY READOUT: Thermal stability V50 (°C)
Give bare numbers, in °C.

Sample records with Thermal stability V50:
LTPAQLNVL [MPO2+L1] = 44.0
TPAQLNVL [MPO2] = 46.3
TPRVTGGGAM [pp65, pp65(417-426) control peptide […], reference compound] = 50.0

# query: Thermal stability V50 of entry NPRWDGERL [MPO5]
46.4
